Assay: Biodistribution in PC-3 tumor-bearing CB17-SCID mice
Type: in vivo
Details: CB17-SCID, mouse, spleen, intravenous, 3.62 mg/kg, total radioactivity, 24 h after injection, coinjection of natLu-RM2 3.62 mg/kg, n = 3; read-out: Biodistribution, Spleen, competition study
Endpoint name: tissue uptake at 24 h (%ID/g)
Quick note: give the figure in %ID/g, leave out the unit.

# Compound, Endpoint name, Measurement unit, Reported value
measured = [
    ("CC(C)C[C@H](NC(=O)C[C@H](O)[C@H](CC(C)C)NC(=O)[C@H](Cc1c[nH]cn1)NC(=O)CNC(=O)[C@@H](NC(=O)[C@H](C)NC(=O)[C@](C)(Cc1c[nH]c2ccccc12)NC(=O)[C@H](CCC(N)=O)NC(=O)[C@@H](Cc1ccccc1)NC(=O)CN1CCC(NC(=O)CCC(C(=O)O)N2CCN(CC(=O)O)CCN(CC(=O)O)CCN(CC(=O)O)CC2)CC1)C(C)C)C(N)=O (stereo partly drawn) [^177Lu-AMTG2, ^177Lu-DOTAGA-α-Me-L-Trp^8-RM2, metal not drawn]", "tissue uptake at 24 h", "%ID/g", 1.06),
]

Could you now consider this next compound?
Prompt line: Which measured tissue uptake at 24 h value corresponds to CC(C)C[C@H](NC(=O)C[C@H](O)[C@H](CC(C)C)NC(=O)[C@H](Cc1c[nH]cn1)NC(=O)CNC(=O)[C@@H](NC(=O)[C@H](C)NC(=O)[C@](C)(Cc1c[nH]c2ccccc12)NC(=O)[C@H](CCC(N)=O)NC(=O)[C@@H](Cc1ccccc1)NC(=O)CN1CCC(NC(=O)CN2CCN(CC(=O)O)CCN(CC(=O)O)CCN(CC(=O)O)CC2)CC1)C(C)C)C(N)=O [^177Lu-AMTG, ^177Lu-α-Me-L-Trp^8-RM2, metal not drawn] ?
Response line: 2.97

###

Experiment: Biodistribution in PC-3 tumor-bearing CB17-SCID mice
Format: in vivo
Settings: CB17-SCID, mouse, lung, intravenous, total radioactivity; 24 h after injection, 100 pmol, n = 4; read-out: Biodistribution, Lung
Endpoint name: tissue uptake at 24 h (%ID/g)
Kindly provide the numeric value in %ID/g only, without the unit symbol.

Prompt line: Value lookup for tissue uptake at 24 h; key = CC(C)CC(CC(C)C)NC(=O)[C@H](Cc1cnc[nH]1)NC(=O)CNC(=O)[C@@H](NC(=O)[C@H](C)NC(=O)[C@H](Cc1c[nH]c2ccccc12)NC(=O)[C@H](CCC(N)=O)NC(=O)[C@@H](Cc1ccccc1)NC(=O)COCC(=O)Nc1ccc(CNC(=O)CN2CCN(CC(=O)O)CCN(CC(=O)O)CCN(CC(=O)O)CC2)cc1)C(C)C [^177Lu-NeoBOMB1, metal not drawn, reference compound]
Response line: 0.43

###

Test: Biodistribution in PC-3 tumor-bearing CB17-SCID mice
Format: in vivo
Conditions: CB17-SCID, mouse, blood, intravenous, total radioactivity; 24 h after injection, 100 pmol, n = 4; read-out: Biodistribution, Blood
Experimental: A detailed description of tumor inoculation is provided in the supplemental materials. Approximately 2–5 MBq (100 pmol, 150 μL) of the ^177Lu-labeled GRPR ligands were injected into the tail vein of anesthetized (2% isoflurane) PC-3 tumor–bearing mice (biodistribution, n = 4; imaging, n = 1). For biodistribution studies, organs were removed, weighed, and measured in a γ-counter (Perkin Elmer) after euthanasia at 24 h after injection. […]
Endpoint name: tissue uptake at 24 h (%ID/g)
Report only the number, with the unit %ID/g understood.

Prompt line: Look at this molecule and give its reported tissue uptake at 24 h. CC(C)CC(CC(C)C)NC(=O)[C@H](Cc1cnc[nH]1)NC(=O)CNC(=O)[C@@H](NC(=O)[C@H](C)NC(=O)[C@H](Cc1c[nH]c2ccccc12)NC(=O)[C@H](CCC(N)=O)NC(=O)[C@@H](Cc1ccccc1)NC(=O)COCC(=O)Nc1ccc(CNC(=O)CN2CCN(CC(=O)O)CCN(CC(=O)O)CCN(CC(=O)O)CC2)cc1)C(C)C [^177Lu-NeoBOMB1, metal not drawn, reference compound]
Response line: 0.057

###

Listed below: tissue uptake at 24 h values for each entry.
Assay: Biodistribution in PC-3 tumor-bearing CB17-SCID mice
Type: in vivo
Details: CB17-SCID, mouse, blood, intravenous, 100 pmol, total radioactivity, 24 h after injection, 100 pmol, n = 4; read-out: Biodistribution, Blood
Number only, in %ID/g; omit the unit.

Prompt line: Look up tissue uptake at 24 h: CC(C)C[C@H](NC(=O)C[C@H](O)[C@H](CC(C)C)NC(=O)[C@H](Cc1c[nH]cn1)NC(=O)CNC(=O)[C@@H](NC(=O)[C@H](C)NC(=O)[C@](C)(Cc1c[nH]c2ccccc12)NC(=O)[C@H](CCC(N)=O)NC(=O)[C@@H](Cc1ccccc1)NC(=O)CN1CCC(NC(=O)CCC(C(=O)O)N2CCN(CC(=O)O)CCN(CC(=O)O)CCN(CC(=O)O)CC2)CC1)C(C)C)C(N)=O (stereo partly drawn) [^177Lu-AMTG2, ^177Lu-DOTAGA-α-Me-L-Trp^8-RM2, metal not drawn]
Response line: 0.011

Prompt line: Field entry: CC(C)C[C@H](NC(=O)C[C@H](O)[C@H](CC(C)C)NC(=O)[C@H](Cc1c[nH]cn1)NC(=O)CNC(=O)[C@@H](NC(=O)[C@H](C)NC(=O)[C@H](Cc1c[nH]c2ccccc12)NC(=O)[C@H](CCC(N)=O)NC(=O)[C@@H](Cc1ccccc1)NC(=O)CN1CCC(NC(=O)CN2CCN(CC(=O)O)CCN(CC(=O)O)CCN(CC(=O)O)CC2)CC1)C(C)C)C(N)=O [^177Lu-RM2, metal not drawn, reference compound]
Response line: 0.012

Prompt line: Another compound: CC(C)C[C@H](NC(=O)C[C@H](O)[C@H](CC(C)C)NC(=O)[C@H](Cc1c[nH]cn1)NC(=O)CNC(=O)[C@@H](NC(=O)[C@H](C)NC(=O)[C@](C)(Cc1c[nH]c2ccccc12)NC(=O)[C@H](CCC(N)=O)NC(=O)[C@@H](Cc1ccccc1)NC(=O)CN1CCC(NC(=O)CN2CCN(CC(=O)O)CCN(CC(=O)O)CCN(CC(=O)O)CC2)CC1)C(C)C)C(N)=O [^177Lu-AMTG, ^177Lu-α-Me-L-Trp^8-RM2, metal not drawn]
Response line: 0.004

###

Assay: Biodistribution in PC-3 tumor-bearing CB17-SCID mice
Type: in vivo
Conditions: CB17-SCID, mouse, tumor (PC-3), intravenous, 3.62 mg/kg, total radioactivity, PC-3 tumor, 24 h after injection, coinjection of natLu-RM2 3.62 mg/kg, n = 3; read-out: Biodistribution, Tumor, competition study
Reported tissue uptake at 24 h values for a set of compounds
State the answer as a number, implicitly in %ID/g.

# Compound, Endpoint name, Measurement unit, Reported value
data = [
    ("CC(C)C[C@H](NC(=O)C[C@H](O)[C@H](CC(C)C)NC(=O)[C@H](Cc1c[nH]cn1)NC(=O)CNC(=O)[C@@H](NC(=O)[C@H](C)NC(=O)[C@](C)(Cc1c[nH]c2ccccc12)NC(=O)[C@H](CCC(N)=O)NC(=O)[C@@H](Cc1ccccc1)NC(=O)CN1CCC(NC(=O)CN2CCN(CC(=O)O)CCN(CC(=O)O)CCN(CC(=O)O)CC2)CC1)C(C)C)C(N)=O [^177Lu-AMTG, ^177Lu-α-Me-L-Trp^8-RM2, metal not drawn]", "tissue uptake at 24 h", "%ID/g", 0.33),
]

// next item, tissue uptake at 24 h requested
Prompt line: Param item = CC(C)C[C@H](NC(=O)C[C@H](O)[C@H](CC(C)C)NC(=O)[C@H](Cc1c[nH]cn1)NC(=O)CNC(=O)[C@@H](NC(=O)[C@H](C)NC(=O)[C@](C)(Cc1c[nH]c2ccccc12)NC(=O)[C@H](CCC(N)=O)NC(=O)[C@@H](Cc1ccccc1)NC(=O)CN1CCC(NC(=O)CCC(C(=O)O)N2CCN(CC(=O)O)CCN(CC(=O)O)CCN(CC(=O)O)CC2)CC1)C(C)C)C(N)=O (stereo partly drawn) [^177Lu-AMTG2, ^177Lu-DOTAGA-α-Me-L-Trp^8-RM2, metal not drawn] ; retrieve measured tissue uptake at 24 h.
Response line: 0.36

###

Assay: Biodistribution in PC-3 tumor-bearing CB17-SCID mice
Assay type: in vivo
Conditions: CB17-SCID, mouse, liver, intravenous, 100 pmol, total radioactivity, 24 h after injection, 100 pmol, n = 4; read-out: Biodistribution, Liver
tissue uptake at 24 h: recorded values
I only need the number, in %ID/g, no unit after it.

Guide cases for tissue uptake at 24 h, answers given:
# Compound, tissue uptake at 24 h (%ID/g)
measured = [
    ("CC(C)C[C@H](NC(=O)C[C@H](O)[C@H](CC(C)C)NC(=O)[C@H](Cc1c[nH]cn1)NC(=O)CNC(=O)[C@@H](NC(=O)[C@H](C)NC(=O)[C@H](Cc1c[nH]c2ccccc12)NC(=O)[C@H](CCC(N)=O)NC(=O)[C@@H](Cc1ccccc1)NC(=O)CN1CCC(NC(=O)CN2CCN(CC(=O)O)CCN(CC(=O)O)CCN(CC(=O)O)CC2)CC1)C(C)C)C(N)=O [^177Lu-RM2, metal not drawn, reference compound]", 0.45),
    ("CC(C)C[C@H](NC(=O)C[C@H](O)[C@H](CC(C)C)NC(=O)[C@H](Cc1c[nH]cn1)NC(=O)CNC(=O)[C@@H](NC(=O)[C@H](C)NC(=O)[C@](C)(Cc1c[nH]c2ccccc12)NC(=O)[C@H](CCC(N)=O)NC(=O)[C@@H](Cc1ccccc1)NC(=O)CN1CCC(NC(=O)CN2CCN(CC(=O)O)CCN(CC(=O)O)CCN(CC(=O)O)CC2)CC1)C(C)C)C(N)=O [^177Lu-AMTG, ^177Lu-α-Me-L-Trp^8-RM2, metal not drawn]", 0.14),
]

# evaluate next
Prompt line: Which tissue uptake at 24 h is reported for this compound? CC(C)C[C@H](NC(=O)C[C@H](O)[C@H](CC(C)C)NC(=O)[C@H](Cc1c[nH]cn1)NC(=O)CNC(=O)[C@@H](NC(=O)[C@H](C)NC(=O)[C@](C)(Cc1c[nH]c2ccccc12)NC(=O)[C@H](CCC(N)=O)NC(=O)[C@@H](Cc1ccccc1)NC(=O)CN1CCC(NC(=O)CCC(C(=O)O)N2CCN(CC(=O)O)CCN(CC(=O)O)CCN(CC(=O)O)CC2)CC1)C(C)C)C(N)=O (stereo partly drawn) [^177Lu-AMTG2, ^177Lu-DOTAGA-α-Me-L-Trp^8-RM2, metal not drawn]
Response line: 0.32
